test system: ATP; assay: switch fluorescence ratio, 500 uM ATP over buffer (Cy3 cluster intensity, sum of 5 cycles each) (fold (ratio)); higher = stronger signal-on switching upon ATP binding; sequences stand for … in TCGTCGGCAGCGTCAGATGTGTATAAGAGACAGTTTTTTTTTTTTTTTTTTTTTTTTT…TC; settings: aptamer strand: ATP DNA aptamer (quencher-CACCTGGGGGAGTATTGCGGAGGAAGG + anchor), 100 nM annealed; ATP concentration: 500 uM;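 further: ATP exposure 15 min at 22 °C before imaging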
Catalogue of switch fluorescence ratio values
Please give only the number in your answer, with no unit.

Field: example entries. Status: answers known.
chain	switch fluorescence ratio
CAGGGCCTGT	1.01
AAATCAGTGG	0.998
GGTTTGATGT	0.975

Answer briefly: switch fluorescence ratio recorded on ATP for TTTGTTGAGT 1

Answer briefly: switch fluorescence ratio recorded on ATP for GATTGCACTT 1.02

Answer briefly: switch fluorescence ratio recorded on ATP for CCAATGATAA 1.01

Answer briefly: switch fluorescence ratio recorded on ATP for GCGAGGGTGG 1.02

Answer briefly: switch fluorescence ratio recorded on ATP for CGTAATTATG 1.01

Answer briefly: switch fluorescence ratio recorded on ATP for AGTTGCCGCG 0.996

Answer briefly: switch fluorescence ratio recorded on ATP for TTGGTGCGTT 0.992

Answer briefly: switch fluorescence ratio recorded on ATP for GGCCCGGGGG 1.01

----------
Catalogue of switch fluorescence ratio values
system: ATP; assay: switch fluorescence ratio, 500 uM ATP over buffer (Cy3 cluster intensity, sum of 5 cycles each) (fold (ratio)); higher = stronger signal-on switching upon ATP binding; sequences stand for … in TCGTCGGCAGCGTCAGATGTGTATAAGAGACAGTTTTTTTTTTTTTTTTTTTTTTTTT…TC; details: aptamer strand: ATP DNA aptamer (quencher-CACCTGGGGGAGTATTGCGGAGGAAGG + anchor), 100 nM annealed; ATP concentration: 500 uM;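 further: ATP exposure 15 min at 22 °C before imaging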
Please give only the number in your answer, with no unit.

Field: example entries. Status: answers known.
chain	observed.value
CGGAGGAAGG	1.04
AAAGGGGAGT	1.04
GTTTAAGGCT	1.02
ATGTTGGTAG	0.985
TTTTTGAT	0.972

Answer briefly: switch fluorescence ratio recorded on ATP for TGCTAGGGGG 0.989

Answer briefly: switch fluorescence ratio recorded on ATP for GTGGGGGTAA 0.969

Answer briefly: switch fluorescence ratio recorded on ATP for AAGTTTTATT 0.992

----------
tested on: ATP; experiment: switch fluorescence ratio, 500 uM ATP over buffer (Cy3 cluster intensity, sum of 5 cycles each) (fold (ratio)); higher = stronger signal-on switching upon ATP binding; sequences stand for … in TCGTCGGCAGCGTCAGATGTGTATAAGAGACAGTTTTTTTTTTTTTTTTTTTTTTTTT…TC; conditions: aptamer strand: ATP DNA aptamer (quencher-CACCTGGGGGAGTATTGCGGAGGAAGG + anchor), 100 nM annealed; ATP concentration: 500 uM;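 further: ATP exposure 15 min at 22 °C before imaging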
Catalogue of switch fluorescence ratio values
Please give only the number in your answer, with no unit.

// fetch switch fluorescence ratio given entry TTGGGGGGTT 1.03

----------
Catalogue of switch fluorescence ratio values
tested on: ATP; assay: switch fluorescence ratio, 500 uM ATP over buffer (Cy3 cluster intensity, sum of 5 cycles each) (fold (ratio)); higher = stronger signal-on switching upon ATP binding; sequences stand for … in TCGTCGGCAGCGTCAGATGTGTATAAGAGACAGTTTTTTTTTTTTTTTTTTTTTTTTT…TC; settings: aptamer strand: ATP DNA aptamer (quencher-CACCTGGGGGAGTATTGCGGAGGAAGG + anchor), 100 nM annealed; ATP concentration: 500 uM;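 further: ATP exposure 15 min at 22 °C before imaging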
Please give only the number in your answer, with no unit.

chain	system.tested	observed.value
TGTTTTTGGA	ATP	1
TATATCGGGG	ATP	0.992
ACGTCGCCGG	ATP	0.987

// fetch switch fluorescence ratio given entry GTTGAGGGTA 1

// fetch switch fluorescence ratio given entry AAGAATGACT 0.977

----------
system: ATP; experiment: switch fluorescence ratio, 500 uM ATP over buffer (Cy3 cluster intensity, sum of 5 cycles each) (fold (ratio)); higher = stronger signal-on switching upon ATP binding; sequences stand for … in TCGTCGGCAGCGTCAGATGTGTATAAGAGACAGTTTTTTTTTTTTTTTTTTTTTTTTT…TC; details: aptamer strand: ATP DNA aptamer (quencher-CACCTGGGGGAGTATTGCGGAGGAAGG + anchor), 100 nM annealed; ATP concentration: 500 uM;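 further: ATP exposure 15 min at 22 °C before imaging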
Catalogue of switch fluorescence ratio values
Please give only the number in your answer, with no unit.

Field: example entries. Status: answers known.
chain	readout	observed.value
CTCTTAGTTT	switch fluorescence ratio	0.999
TTACTTCTTT	switch fluorescence ratio	0.976
ATCATGCGCT	switch fluorescence ratio	0.996

// fetch switch fluorescence ratio given entry CAAGAATTTG 0.982

// fetch switch fluorescence ratio given entry TGCTTAAGAT 0.99

----------
test system: ATP; assay: switch fluorescence ratio, 500 uM ATP over buffer (Cy3 cluster intensity, sum of 5 cycles each) (fold (ratio)); higher = stronger signal-on switching upon ATP binding; sequences stand for … in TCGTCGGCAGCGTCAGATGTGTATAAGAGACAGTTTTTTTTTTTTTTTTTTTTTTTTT…TC; details: aptamer strand: ATP DNA aptamer (quencher-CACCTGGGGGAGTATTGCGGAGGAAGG + anchor), 100 nM annealed; ATP concentration: 500 uM;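 further: ATP exposure 15 min at 22 °C before imaging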
readout: switch fluorescence ratio
Please give only the number in your answer, with no unit.

Field: example entries. Status: answers known.
chain	switch fluorescence ratio
CTTTCCCTTT	1.01
GGGTGGGTTG	1
TCAGACTGCG	0.999
GGGTCGCAGC	0.998
CATAACCGGT	1.01

// fetch switch fluorescence ratio given entry TCGTGCAACA 0.983

// fetch switch fluorescence ratio given entry GATGGTAATT 1

// fetch switch fluorescence ratio given entry TCCGGTTTTA 0.981

----------
tested on: ATP; test: switch fluorescence ratio, 500 uM ATP over buffer (Cy3 cluster intensity, sum of 5 cycles each) (fold (ratio)); higher = stronger signal-on switching upon ATP binding; sequences stand for … in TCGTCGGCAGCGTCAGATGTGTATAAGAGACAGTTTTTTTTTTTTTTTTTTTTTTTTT…TC; settings: aptamer strand: ATP DNA aptamer (quencher-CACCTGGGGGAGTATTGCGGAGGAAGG + anchor), 100 nM annealed; ATP concentration: 500 uM;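 further: ATP exposure 15 min at 22 °C before imaging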
Catalogue of switch fluorescence ratio values
Please give only the number in your answer, with no unit.

Field: example entries. Status: answers known.
chain	system.tested	observed.value
ATCGGCGTAT	ATP	1.01
GTGTTAGGGA	ATP	1.01
TGATAGAAGT	ATP	1.01

// fetch switch fluorescence ratio given entry GAGGAAGATT 1.02

// fetch switch fluorescence ratio given entry GGCTGTTTGG 1

// fetch switch fluorescence ratio given entry ATCAAACGAG 1.01

// fetch switch fluorescence ratio given entry GATGGCATCG 1.02

// fetch switch fluorescence ratio given entry TACGAGTTTT 0.996

// fetch switch fluorescence ratio given entry ATGTTTAAG 1.01

// fetch switch fluorescence ratio given entry TAGTAAGGGC 1.02

// fetch switch fluorescence ratio given entry AATAGTGTCC 1.01

----------
Catalogue of switch fluorescence ratio values
test system: ATP; experiment: switch fluorescence ratio, 500 uM ATP over buffer (Cy3 cluster intensity, sum of 5 cycles each) (fold (ratio)); higher = stronger signal-on switching upon ATP binding; sequences stand for … in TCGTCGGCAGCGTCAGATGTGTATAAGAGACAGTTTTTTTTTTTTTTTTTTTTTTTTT…TC; conditions: aptamer strand: ATP DNA aptamer (quencher-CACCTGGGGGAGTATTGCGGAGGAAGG + anchor), 100 nM annealed; ATP concentration: 500 uM;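 further: ATP exposure 15 min at 22 °C before imaging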

Field: example entries. Status: answers known.
chain	system.tested	switch fluorescence ratio
GATTTTTTAC	ATP	0.995
ATTGATATCC	ATP	0.987
TATCTATGTA	ATP	1.01
TAACGATGGG	ATP	1.01
AACGATGTAA	ATP	0.995

Answer briefly: switch fluorescence ratio recorded on ATP for GTGTGAGTTA 0.992

Answer briefly: switch fluorescence ratio recorded on ATP for GCGTGAGTTG 0.978

Answer briefly: switch fluorescence ratio recorded on ATP for AAGGAGGCAC 0.985

Answer briefly: switch fluorescence ratio recorded on ATP for TTAGGGCTGC 0.987

Answer briefly: switch fluorescence ratio recorded on ATP for GCTGGGGTAT 0.984

----------
Catalogue of switch fluorescence ratio values
system: ATP; test: switch fluorescence ratio, 500 uM ATP over buffer (Cy3 cluster intensity, sum of 5 cycles each) (fold (ratio)); higher = stronger signal-on switching upon ATP binding; sequences stand for … in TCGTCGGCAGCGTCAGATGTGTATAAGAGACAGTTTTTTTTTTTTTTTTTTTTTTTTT…TC; conditions: aptamer strand: ATP DNA aptamer (quencher-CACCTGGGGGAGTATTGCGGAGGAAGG + anchor), 100 nM annealed; ATP concentration: 500 uM;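 further: ATP exposure 15 min at 22 °C before imaging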
Please give only the number in your answer, with no unit.

Field: example entries. Status: answers known.
chain	switch fluorescence ratio
TCCCTTTTGG	1.01
TTGAGATGGT	0.954
TAAGGGAACC	1.01

Consider now this further sequence.
// fetch switch fluorescence ratio given entry ATATTGAGGG 1.01
